molecular target: Prostaglandin G/H synthase 2 (Homo sapiens, UniProt P35354); experiment: Inhibition of recombinant human COX-2 using arachidonic acid as substrate preincubated for 5 mins followed by substrate addition and measured after 20 mins by ELISA
Sequence (P35354 whole entry): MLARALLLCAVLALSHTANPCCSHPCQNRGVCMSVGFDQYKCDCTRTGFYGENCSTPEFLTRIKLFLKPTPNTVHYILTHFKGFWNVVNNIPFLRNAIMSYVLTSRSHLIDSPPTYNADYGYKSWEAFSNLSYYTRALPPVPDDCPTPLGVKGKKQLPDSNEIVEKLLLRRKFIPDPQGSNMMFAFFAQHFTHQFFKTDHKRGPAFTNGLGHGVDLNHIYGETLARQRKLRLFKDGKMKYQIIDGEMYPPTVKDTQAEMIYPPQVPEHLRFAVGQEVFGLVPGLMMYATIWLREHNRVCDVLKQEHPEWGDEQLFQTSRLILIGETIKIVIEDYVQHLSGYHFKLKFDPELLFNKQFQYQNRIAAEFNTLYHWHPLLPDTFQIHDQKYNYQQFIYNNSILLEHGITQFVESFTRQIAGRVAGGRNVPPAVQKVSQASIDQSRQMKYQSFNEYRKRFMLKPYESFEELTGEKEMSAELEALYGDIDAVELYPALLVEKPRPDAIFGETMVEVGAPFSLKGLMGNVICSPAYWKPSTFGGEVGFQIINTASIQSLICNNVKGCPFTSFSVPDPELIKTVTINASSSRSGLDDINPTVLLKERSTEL
measurement label: IC50 (µM)
Just the number please, in µM, no unit attached.

COc1cc(/C=C/c2ccc(O)cc2)cc(OC)c1 = 5.99

Note: attention shifts to another entry.
Need IC50 of COc1cc(O)cc(/C=C/c2ccc(O)cc2)c1 , thanks.
0.25

###

biological target: Prostaglandin G/H synthase 2 (Homo sapiens); assay: Inhibition of recombinant human COX-2 by enzyme immune assay
IC50 values by entry
Just the number please, in nM, no unit attached.

O=C(NC1CCCCC1)c1cc(/N=C/c2cc(O)ccc2O)ccc1O = 110
CCCCCCNC(=O)c1cc(NCc2cc(O)ccc2O)ccc1O = 100
CCCCNC(=O)c1cc(NCc2cc(O)ccc2O)ccc1O = 100

Need IC50 of O=C(NC1CCCCC1)c1cc(NCc2cc(O)ccc2O)ccc1O , thanks.
100
